SYSTEM: UniProt P00533

>  <CHEMICAL_STRING>
ClCCN(CCCl)c1ccc2ncnc(Nc3cccc(Br)c3)c2c1

>  <IC50>
1260 nM

$$$$
>  <CHEMICAL_STRING>
CN(CCCl)c1ccc2ncnc(Nc3cccc(Br)c3)c2c1

>  <IC50>
504 nM

$$$$

---

SYSTEM: Epidermal growth factor receptor (Homo sapiens, UniProt P00533)
Sequence (P00533 whole entry): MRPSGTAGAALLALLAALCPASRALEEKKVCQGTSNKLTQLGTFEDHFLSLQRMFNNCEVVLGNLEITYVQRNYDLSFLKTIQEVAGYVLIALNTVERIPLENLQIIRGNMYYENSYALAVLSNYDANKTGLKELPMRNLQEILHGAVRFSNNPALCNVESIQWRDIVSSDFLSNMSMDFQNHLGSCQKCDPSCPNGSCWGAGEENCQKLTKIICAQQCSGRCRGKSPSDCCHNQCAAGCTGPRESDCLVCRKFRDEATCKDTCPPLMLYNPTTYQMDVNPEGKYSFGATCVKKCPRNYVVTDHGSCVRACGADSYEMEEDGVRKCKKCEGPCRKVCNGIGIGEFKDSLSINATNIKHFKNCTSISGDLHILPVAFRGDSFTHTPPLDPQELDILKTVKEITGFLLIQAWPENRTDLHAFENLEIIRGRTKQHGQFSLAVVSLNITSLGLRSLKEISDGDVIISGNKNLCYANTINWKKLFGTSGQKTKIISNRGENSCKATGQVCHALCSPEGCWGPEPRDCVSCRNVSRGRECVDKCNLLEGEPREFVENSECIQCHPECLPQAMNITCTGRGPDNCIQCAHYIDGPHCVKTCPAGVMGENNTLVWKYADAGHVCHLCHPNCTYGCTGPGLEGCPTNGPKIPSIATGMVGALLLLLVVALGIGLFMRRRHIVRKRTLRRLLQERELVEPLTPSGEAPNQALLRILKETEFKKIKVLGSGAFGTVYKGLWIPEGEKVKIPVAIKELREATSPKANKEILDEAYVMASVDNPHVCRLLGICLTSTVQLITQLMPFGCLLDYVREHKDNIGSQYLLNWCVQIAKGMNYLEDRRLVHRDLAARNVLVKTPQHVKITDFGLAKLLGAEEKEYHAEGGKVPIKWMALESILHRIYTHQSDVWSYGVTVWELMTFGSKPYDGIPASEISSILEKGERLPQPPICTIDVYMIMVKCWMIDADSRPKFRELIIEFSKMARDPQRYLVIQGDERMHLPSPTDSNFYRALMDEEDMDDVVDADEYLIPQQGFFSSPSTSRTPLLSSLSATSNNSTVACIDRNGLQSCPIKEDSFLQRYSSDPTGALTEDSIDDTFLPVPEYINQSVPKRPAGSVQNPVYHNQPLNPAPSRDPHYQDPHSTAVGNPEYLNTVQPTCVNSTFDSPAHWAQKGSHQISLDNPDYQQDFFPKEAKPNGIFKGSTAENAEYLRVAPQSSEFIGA
ASSAY_INFO: Inhibition of EGFR phosphorylation in human PC-9 cells at 1 to 10 uM preincubated for 2 hrs followed by EGF stimulation and measured after 30 mins by Western blot analysis
Type: cell-based
PARTICULARS: dose 1-10 µM, time 2.5 hrs
Calls of active or inactive are those of the source. No cut-off for these calls is given here.
Outcomes: active, inactive

>  <CHEMICAL_STRING>
ClCCNc1ccc2ncnc(Nc3cccc(Br)c3)c2c1

>  <GROUP>
active

$$$$
>  <CHEMICAL_STRING>
CN(CCCl)c1ccc2ncnc(Nc3cccc(Br)c3)c2c1

>  <GROUP>
active

$$$$
>  <CHEMICAL_STRING>
O=C(O)CCCc1ccc(N(CCCl)CCCl)cc1

>  <GROUP>
inactive

$$$$
>  <CHEMICAL_STRING>
ClCCN(CCCl)c1ccc2ncnc(Nc3cccc(Br)c3)c2c1

>  <GROUP>
active

$$$$

---

SYSTEM: Epidermal growth factor receptor (Homo sapiens, UniProt P00533)
ASSAY_INFO: Inhibition of EGFR phosphorylation in human A549 cells at 1 to 10 uM preincubated for 2 hrs followed by EGF stimulation and measured after 30 mins by Western blot analysis
Format: cell-based
PARTICULARS: dose 1-10 µM, time 2.5 hrs
Active and inactive are the calls of the source. The calls are words filed in the database; no cut-off is given here.
Outcomes: 1 (yes) (active), 0 (no) (inactive)

>  <CHEMICAL_STRING>
O=C(O)CCCc1ccc(N(CCCl)CCCl)cc1

>  <GROUP>
0 (no)

$$$$
>  <CHEMICAL_STRING>
ClCCNc1ccc2ncnc(Nc3cccc(Br)c3)c2c1

>  <GROUP>
1 (yes)

$$$$
>  <CHEMICAL_STRING>
CN(CCCl)c1ccc2ncnc(Nc3cccc(Br)c3)c2c1

>  <GROUP>
1 (yes)

$$$$
>  <CHEMICAL_STRING>
ClCCN(CCCl)c1ccc2ncnc(Nc3cccc(Br)c3)c2c1

>  <GROUP>
1 (yes)

$$$$
